Data provenance is patent US11033539B2.

Listed next: entries and their corresponding Ki.
# target.entity: UniProt:P11229
# Sequence (P11229 whole entry): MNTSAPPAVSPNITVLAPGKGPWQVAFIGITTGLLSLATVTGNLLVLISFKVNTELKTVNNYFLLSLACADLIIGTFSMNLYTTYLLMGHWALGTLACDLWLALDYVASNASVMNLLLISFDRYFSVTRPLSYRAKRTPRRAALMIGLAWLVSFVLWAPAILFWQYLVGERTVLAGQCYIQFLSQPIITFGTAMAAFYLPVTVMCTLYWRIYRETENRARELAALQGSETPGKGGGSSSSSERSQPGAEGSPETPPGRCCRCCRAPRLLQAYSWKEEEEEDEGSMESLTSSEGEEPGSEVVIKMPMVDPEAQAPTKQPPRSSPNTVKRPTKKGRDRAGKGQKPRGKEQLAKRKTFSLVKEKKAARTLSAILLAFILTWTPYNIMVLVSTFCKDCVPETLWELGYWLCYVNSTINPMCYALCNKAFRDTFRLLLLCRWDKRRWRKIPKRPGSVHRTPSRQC
# measurement.description: Radioligand (tritiated N-methylscopolamine) binding assay, M1
# applied.conditions: CHO cell membranes expressing human M1; 1.5 nM tritiated N-methylscopolamine; 90 min, 37° C.; read-out: Ki against M1 receptor (Table 21, M1)

>  <molecule>
N#Cc1ccc(N2CCC(C(=O)NCCC3CCN(Cc4ccccc4)CC3)CC2)cc1OC(F)(F)F [10-13]

>  <Ki>
100 to 1000 nM

$$$$
>  <molecule>
C[C@@H]1CN(C(=O)NCCC2CCN(Cc3ccccc3)CC2)CCN1c1ccc(OC(F)(F)F)cc1 [4-18]

>  <Ki>
> 1000 nM

$$$$
>  <molecule>
C[C@@H]1CN(c2cccc(OC(F)(F)F)c2)CCN1C(=O)NCCC1CCN(Cc2ccccc2)CC1 [4-16]

>  <Ki>
100 to 1000 nM

$$$$

Req: Please report the recorded Ki for O=C(NCCC1CCN(Cc2ccccc2)CC1)N1CCC(c2ccc(C(F)(F)F)cc2)CC1 [8-1] .
Resp: 100 to 1000 nM
